Values compiled from patent US10807985B2.

Biological target: KIT D816V kinase activity (KIT autophosphorylation at tyrosine 719) in HMC1.2 cells (Homo sapiens (Human), UniProt P10721, D816V/V560G)
Sequence (P10721 26-976 V560G/D816V): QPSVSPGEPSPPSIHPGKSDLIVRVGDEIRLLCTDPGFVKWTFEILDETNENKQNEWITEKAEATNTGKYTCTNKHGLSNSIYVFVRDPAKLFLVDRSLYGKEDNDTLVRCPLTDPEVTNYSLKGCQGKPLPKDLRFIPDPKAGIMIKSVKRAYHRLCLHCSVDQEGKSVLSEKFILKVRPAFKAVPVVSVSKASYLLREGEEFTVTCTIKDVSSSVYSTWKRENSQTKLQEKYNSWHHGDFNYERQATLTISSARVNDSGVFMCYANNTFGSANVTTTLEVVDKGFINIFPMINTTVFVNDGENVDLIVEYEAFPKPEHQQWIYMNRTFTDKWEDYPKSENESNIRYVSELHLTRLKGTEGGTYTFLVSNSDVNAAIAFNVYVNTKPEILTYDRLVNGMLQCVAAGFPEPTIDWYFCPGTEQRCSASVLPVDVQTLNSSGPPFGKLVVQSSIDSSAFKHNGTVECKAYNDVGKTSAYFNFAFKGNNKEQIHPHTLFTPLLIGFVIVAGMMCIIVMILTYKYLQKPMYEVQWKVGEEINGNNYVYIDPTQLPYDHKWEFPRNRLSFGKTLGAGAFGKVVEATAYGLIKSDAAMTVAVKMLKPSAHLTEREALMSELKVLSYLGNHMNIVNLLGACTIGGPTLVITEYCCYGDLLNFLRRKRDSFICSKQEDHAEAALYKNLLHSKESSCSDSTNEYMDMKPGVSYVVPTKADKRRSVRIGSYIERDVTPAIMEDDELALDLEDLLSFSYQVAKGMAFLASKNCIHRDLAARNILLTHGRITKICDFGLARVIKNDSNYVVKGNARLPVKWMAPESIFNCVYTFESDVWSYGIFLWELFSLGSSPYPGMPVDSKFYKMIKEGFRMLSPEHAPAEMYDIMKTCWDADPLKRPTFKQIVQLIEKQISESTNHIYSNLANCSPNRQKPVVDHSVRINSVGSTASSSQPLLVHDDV
Experiment: HMC1.2 autophosphorylation assay (phospho-Y719 c-KIT AlphaLISA)
Settings: HMC1.2 mast cell leukemia cell line (KIT V560G, D816V), 90 minutes compound; read-out: INH-KIT-PHOS-HMC1.2
pIC50: −log10 of the molar value.
Property Label: pIC50

>>> result_value("CN(C)C(=O)c1ccc(-c2cc3c(N4CCN(c5ncc(Cc6ccccc6)cn5)CC4)ncnn3c2)cc1")
"6.00 to 7.00"
>>> result_value("C[C@H](c1ccc(F)cc1)c1cnc(N2CCN(c3ncnn4cc(-c5cnn(C)c5)cc34)C[C@H]2CO)nc1")
"7.00 to 7.30"
>>> result_value("COc1ccc(-c2cc3c(N4CCN(c5ccccc5)CC4)ncnn3c2)cc1OC")
"5.00 to 6.00"
>>> result_value("Cn1cc(-c2cc3c(N4CCN(c5ncc([C@](O)(c6ccc(F)cc6)C6CC6)cn5)CC4)ncnn3c2)cn1")
"6.00 to 7.00"
>>> result_value("Cn1cc(-c2cc3c(N4CCN(c5ncc([C@](C)(O)c6ccccc6F)cn5)CC4)ncnn3c2)cn1")
"> 7.30"

###

# Lookup of reported pIC50 keyed by entry
Biological target: PDGFRA D842V (Homo sapiens (Human), UniProt P16234, D842V)
Sequence (P16234 24-1089 D842V): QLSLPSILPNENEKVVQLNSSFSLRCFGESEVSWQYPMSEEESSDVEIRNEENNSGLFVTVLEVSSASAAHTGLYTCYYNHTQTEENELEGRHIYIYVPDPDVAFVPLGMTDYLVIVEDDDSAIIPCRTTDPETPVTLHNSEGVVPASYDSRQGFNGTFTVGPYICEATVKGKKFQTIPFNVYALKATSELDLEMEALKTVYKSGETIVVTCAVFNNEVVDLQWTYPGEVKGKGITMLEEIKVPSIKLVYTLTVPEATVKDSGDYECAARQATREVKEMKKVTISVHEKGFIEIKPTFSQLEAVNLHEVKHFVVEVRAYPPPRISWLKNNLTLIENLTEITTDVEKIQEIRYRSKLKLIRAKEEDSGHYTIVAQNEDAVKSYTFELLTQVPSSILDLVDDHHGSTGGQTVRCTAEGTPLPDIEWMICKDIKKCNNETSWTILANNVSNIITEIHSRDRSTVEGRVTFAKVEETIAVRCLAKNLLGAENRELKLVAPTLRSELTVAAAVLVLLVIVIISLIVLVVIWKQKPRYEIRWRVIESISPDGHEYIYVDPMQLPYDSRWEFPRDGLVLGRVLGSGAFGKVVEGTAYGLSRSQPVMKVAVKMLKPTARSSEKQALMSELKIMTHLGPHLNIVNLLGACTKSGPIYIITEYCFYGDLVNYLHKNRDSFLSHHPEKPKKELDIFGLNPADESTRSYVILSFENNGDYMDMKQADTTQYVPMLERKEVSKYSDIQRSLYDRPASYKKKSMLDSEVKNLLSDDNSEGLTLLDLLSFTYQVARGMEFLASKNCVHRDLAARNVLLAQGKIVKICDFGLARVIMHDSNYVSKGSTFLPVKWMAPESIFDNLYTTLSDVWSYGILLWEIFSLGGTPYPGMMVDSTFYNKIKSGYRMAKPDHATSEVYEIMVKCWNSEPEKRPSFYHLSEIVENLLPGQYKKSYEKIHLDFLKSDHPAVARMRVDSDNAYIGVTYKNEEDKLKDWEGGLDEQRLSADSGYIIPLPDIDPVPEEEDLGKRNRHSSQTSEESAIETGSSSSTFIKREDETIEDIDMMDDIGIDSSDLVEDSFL
Experiment: PDGFRA D842V assay at Km (Caliper electrophoretic mobility shift)
Conditions: biochemical, 15 uM ATP (Km), 90 minutes at 25 C; read-out: INH PDFGRA D842V
pIC50: −log10 of the molar value.
Property Label: pIC50

>>> result_value("Cn1cc(-c2cc3c(N4CCN(c5ncc([C@](C)(CO)c6ccc(F)cc6)cn5)CC4)ncnn3c2)cn1 [Compound 79]")
"> 9.00"
>>> result_value("Cn1cc(-c2cc3c(N4CCN(c5ncc(Cc6ccc(F)cc6)cn5)CC4)ncnn3c2)cn1 [Compound 14]")
"8.00 to 9.00"
>>> result_value("Fc1ccccc1Sc1cnc(N2CCN(c3ncnn4cc(-c5cnn(C[C@@H]6CNCCO6)c5)cc34)CC2)nc1 [Compound 123]")
"8.00 to 9.00"
>>> result_value("Cn1cc(-c2cc3c(N4CCN(c5ncc([C@](C)(O)c6c(F)cc(F)cc6F)cn5)CC4)ncnn3c2)cn1 [Compound 115]")
"> 9.00"
>>> result_value("C[C@@](O)(c1ccc(F)cc1)c1cnc(N2CCN(c3ncnn4cc(-c5cn[nH]c5)cc34)CC2)nc1 [Compound 29]")
"8.00 to 9.00"
>>> result_value("C[C@H](c1ccccc1)c1cnc(N2CCN(c3ncnn4cc(-c5cnn(C)c5)cc34)CC2)nc1 [Compound 9]")
"8.00 to 9.00"
>>> result_value("C[C@](O)(c1ccc(F)cc1)c1cnc(N2CCN(c3ncnn4cc(-c5cn[nH]c5)cc34)CC2)nc1 [Compound 30]")
"> 9.00"
>>> result_value("Cn1cc(-c2cc3c(N4CCN(c5ncc([C@@](N)(c6ccc(F)cc6)C(F)(F)F)cn5)CC4)ncnn3c2)cn1 [Compound 122]")
"8.00 to 9.00"
>>> result_value("Cn1cc(-c2cc3c(N4CCN(c5ncc([C@](O)(CF)c6ccc(F)cc6)cn5)CC4)ncnn3c2)cn1 [Compound 96]")
"> 9.00"
>>> result_value("CC[C@@H](c1ccc(F)cc1)c1cnc(N2CCN(c3ncnn4cc(-c5cnn(C)c5)cc34)CC2)nc1 (single isomer, unassigned) [Compound 41]")
"8.00 to 9.00"
>>> result_value("Cn1cc(-c2cc3c(N4CCN(c5ncc([C@@](N)(c6ccc(F)cc6)C(F)F)cn5)CC4)ncnn3c2)cn1 [Compound 111]")
"> 9.00"
>>> result_value("C[C@@H](c1ccccc1)c1cnc(N2CCN(c3ncnn4cc(-c5cnn(C)c5)cc34)CC2)nc1 [Compound 10]")
"> 9.00"
>>> result_value("Cn1cc(-c2cc3c(N4CCN(c5ncc([C@@](C)(CO)c6ccc(F)cc6)cn5)CC4)ncnn3c2)cn1 [Compound 78]")
"> 9.00"
>>> result_value("C[C@@H]1CN(c2ncnn3cc(-c4cnn(C)c4)cc23)CCN1c1ncc([C@](C)(O)c2ccc(F)cc2)cn1 [Compound 76]")
"8.00 to 9.00"
>>> result_value("Cn1cc(-c2cc3c(N4CCN(c5ncc([C@@](C)(O)c6ccc(F)cc6F)cn5)CC4)ncnn3c2)cn1 [Compound 94]")
"> 9.00"
>>> result_value("O[C@@](c1ccc(F)cc1)(c1cnc(N2CCN(c3ncnn4cc(-c5cn[nH]c5)cc34)CC2)nc1)C(F)F [Compound 100]")
"> 9.00"
>>> result_value("C[C@@H]1CN(c2ncnn3cc(-c4cnn(C)c4)cc23)CCN1c1ncc([C@@](C)(O)c2ccc(F)cc2)cn1 [Compound 77]")
"> 9.00"
>>> result_value("Cn1cc(-c2cc3c(N4CCN(c5ncc([C@@](O)(c6ccc(F)cc6)C(F)F)cn5)CC4)ncnn3c2)cn1 [Compound 117]")
"8.00 to 9.00"
>>> result_value("C[C@](N)(c1ccc(F)cc1)c1cnc(N2CCN(c3ncnn4cc(-c5cn[nH]c5)cc34)CC2)nc1 [Compound 26]")
"> 9.00"
>>> result_value("C[C@](O)(c1ccc(F)cc1)c1cnc(N2CCN(c3ncnn4cc(-c5ccc(F)cc5)cc34)CC2)nc1 [Compound 65]")
"8.00 to 9.00"
>>> result_value("Cc1ncc(-c2cc3c(N4CCN(c5ncc([C@](C)(O)c6ccc(F)cc6)cn5)CC4)ncnn3c2)s1 [Compound 87]")
"8.00 to 9.00"
>>> result_value("COc1ccc(-c2cc3c(N4CCN(c5ncc([C@@](C)(O)c6ccc(F)cc6)cn5)CC4)ncnn3c2)cc1 [Compound 102]")
"8.00 to 9.00"
>>> result_value("C[C@](O)(c1cnc(N2CCN(c3ncnn4cc(-c5cn[nH]c5)cc34)CC2)nc1)c1ccc(F)cc1F [Compound 57]")
"8.00 to 9.00"
>>> result_value("C[C@](N)(c1ccc(F)cc1)c1cnc(N2CCN(c3ncnn4cc(-c5ccc(F)cc5)cc34)CC2)nc1 [Compound 62]")
"8.00 to 9.00"
>>> result_value("Cn1cc(-c2cc3c(N4CCN(c5ncc([C@](C)(O)c6ccc(F)cc6)cn5)CC4)ncnn3c2)cn1 [Compound 45]")
"> 9.00"
>>> result_value("Cn1cc(-c2cc3c(N4CCN(c5ncc(Sc6ccccc6F)cn5)[C@H](CO)C4)ncnn3c2)cn1 [Compound 97]")
"8.00 to 9.00"
>>> result_value("Cn1cc(-c2cc3c(N4CCN(c5ncc([C@@](C)(O)c6ccc(F)cc6)cn5)CC4)ncnn3c2)cn1 [Compound 46]")
"> 9.00"
>>> result_value("C[C@](N)(c1ccccc1)c1cnc(N2CCN(c3ncnn4cc(-c5ccc(F)cc5)cc34)CC2)nc1 [Compound 34]")
"> 9.00"

###

Target: KIT D816V kinase activity (KIT autophosphorylation at tyrosine 719) in HMC1.2 cells (Homo sapiens (Human), UniProt P10721, D816V/V560G)
Experiment: HMC1.2 autophosphorylation assay (phospho-Y719 c-KIT AlphaLISA)
Conditions: HMC1.2 mast cell leukemia cell line (KIT V560G, D816V), 90 minutes compound; read-out: INH-KIT-PHOS-HMC1.2
pIC50: −log10 of the molar value.
# Lookup of reported pIC50 keyed by entry
Property Label: pIC50

>>> result_value("Cn1cc(-c2cc3c(N4CCN(c5ncc([C@](C)(O)c6c(F)cc(F)cc6F)cn5)CC4)ncnn3c2)cn1 [Compound 115]")
"> 7.30"
>>> result_value("NC(=O)c1ccc(-c2cc3c(N4CCN(c5ncc(Cc6ccccc6)cn5)CC4)ncnn3c2)cc1 [Compound 33]")
"6.00 to 7.00"
>>> result_value("Cn1cc(-c2cc3c(N4CCN(c5ncc([C@](C)(O)c6ccc(F)cc6Cl)cn5)CC4)ncnn3c2)cn1 [Compound 109]")
"6.00 to 7.00"
>>> result_value("Cn1cc(-c2cc3c(N4CCN(c5ncc([C@](C)(N)c6ccccc6)cn5)CC4)ncnn3c2)cn1 [Compound 21]")
"7.00 to 7.30"
>>> result_value("Cn1cc(-c2cc3c(N4CCN(c5ncc([C@@](C)(CO)c6ccc(F)cc6)cn5)CC4)ncnn3c2)cn1 [Compound 78]")
"> 7.30"
>>> result_value("Cn1cc(-c2cc3c(N4CCN(c5ncc([C@@H](O)c6ccc(F)cc6)cn5)CC4)ncnn3c2)cn1 [Compound 31]")
"> 7.30"
>>> result_value("Cn1cc(-c2cc3c(N4CCN(c5ncc([C@H](O)c6ccc(F)cc6)cn5)CC4)ncnn3c2)cn1 [Compound 32]")
"> 7.30"
